Assay: in vivo
Details: Sprague-Dawley, rat
VALUE_TYPE: half-life (h)
Give just the numeric value; h need not be written.

## Task // half-life lookup, key: C[C@@H](C(=O)N(C)[C@@H]1CCc2c(CC(=O)O)c3ccccc3n2C1)c1ccc(F)cc1
## Result 4.7

Cited source for all entries: ChEMBL document CHEMBL1777736
